molecular target: LgTrip 3546 (with His tag; SEQ ID NO: 51); experiment: luminescence complementation; settings: modification not given
Sequence (chain, as listed by the source): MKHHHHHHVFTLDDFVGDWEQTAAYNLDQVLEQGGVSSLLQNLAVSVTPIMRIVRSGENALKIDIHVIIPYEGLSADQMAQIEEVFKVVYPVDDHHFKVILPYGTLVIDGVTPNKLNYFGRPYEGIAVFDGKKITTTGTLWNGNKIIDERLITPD
pKd: −log10 of the molar value.
propertyMeasured: pKd

(A) DLMLFRVTINSWK [657]
(B) GKMKFRVTIESWK [717]
In: # min-compare on pKd between A and B Identify your selection by its label.
Out: B
